# System: U2OS
# Run description: Multiplex assay against U2OS
# Format: toxicity, cell-based
# Experimental conditions: human, 12 h, 1 µM, compound concentration 1 uM, replicate 2
Property measured: Population Fragmented Nuclei (%)
Hi! Could you send only the number? It should be in %, unit omitted.

Could you share which Population Fragmented Nuclei (%) value was measured for Cn1cc(C(=O)OCC2CCN(CCNS(C)(=O)=O)CC2)c2ccccc21 ?
20

Could you share which Population Fragmented Nuclei (%) value was measured for Cl.Cl.OCCOCCN1CCN(C(c2ccccc2)c2ccc(Cl)cc2)CC1 (stereo not given) [HYDROXYZINE HYDROCHLORIDE] ?
13

Could you share which Population Fragmented Nuclei (%) value was measured for Cc1cc(O)c(-c2ccc([C@@H](C)CN(C)C)cc2)c2c1[nH]c(=O)c1sccc12 ?
25

Could you share which Population Fragmented Nuclei (%) value was measured for COc1ccc2c(c1OCc1ccccc1)C[C@@H](C(=O)O)N(C(=O)C(c1ccccc1)c1ccccc1)C2 ?
18

Could you share which Population Fragmented Nuclei (%) value was measured for CN1CCN(c2ccc(Nc3c4ccccc4nc4ccccc34)cc2)CC1.Cl.Cl.O ?
23
